- tested system: P2Y purinoceptor 12 (Homo sapiens)
- Sequence (Q9H244 whole entry): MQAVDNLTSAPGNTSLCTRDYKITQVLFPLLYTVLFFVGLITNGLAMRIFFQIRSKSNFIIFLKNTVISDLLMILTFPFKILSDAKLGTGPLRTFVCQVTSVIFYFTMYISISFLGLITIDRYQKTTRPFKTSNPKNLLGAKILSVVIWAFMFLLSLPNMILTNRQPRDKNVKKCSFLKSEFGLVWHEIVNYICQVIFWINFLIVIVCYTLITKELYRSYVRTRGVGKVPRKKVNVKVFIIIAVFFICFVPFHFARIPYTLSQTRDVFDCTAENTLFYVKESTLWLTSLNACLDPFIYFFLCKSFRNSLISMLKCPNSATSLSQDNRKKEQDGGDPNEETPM
- assay method text: ChEBML_162514
pIC50: −log10 of the molar value.
measured endpoint: pIC50

Past entries and their recorded results:
O=C(CS(=O)(=O)Nc1nc2ccc(-c3ccccc3)cc2s1)C1C(=O)N2C(=NS1(=O)=O)Sc1cc(-c3ccccc3)ccc12 (stereo unspecified) : < 4.30
O=C(CS(=O)(=O)Nc1nc2ccc(Oc3ccccc3)cc2s1)C1C(=O)N2C(=NS1(=O)=O)Sc1cc(Oc3ccccc3)ccc12 (stereo unspecified) : < 4.30
O=C(CS(=O)(=O)Nc1nc2ccc(Cl)cc2s1)C1C(=O)N2C(=NS1(=O)=O)Sc1cc(Cl)ccc12 (stereo unspecified) : 4.46
O=C(CS(=O)(=O)Nc1nc2ccc([N+](=O)[O-])cc2s1)C1=C([O-])[n+]2c(sc3cc([N+](=O)[O-])ccc32)NS1(=O)=O : 4.46
O=C(CS(=O)(=O)Nc1nc2ccc(C3CCCCC3)cc2s1)C1C(=O)N2C(=NS1(=O)=O)Sc1cc(C3CCCCC3)ccc12 (stereo unspecified) : < 3.92

Pending compound:
**Q:** Name the recorded pIC50 of the compound listed here: "O=C1CS(=O)(=O)N=C2Sc3cc(OC(F)(F)F)ccc3N12"
**A:** < 3.92
